Each recorded value in this set is attributed to ChEMBL document CHEMBL1201862.

Test system: SF-539
Test: NCI tumour cell line growth inhibition, 48 h
Activity calls are given as the source filed them. Rule as the data show it: active = GI50 up to about 1.1 µM and inactive = higher.
Possible outcomes: yes (1) for active, no (0) for inactive

# compound, label
measured = [
    ("CCCCNC(=S)Nc1nc(C(=O)NNS(=O)(=O)c2ccccc2)cs1", "no (0)"),
    ("Cc1nc2ccc(Br)cc2c(=O)n1-c1ccc(N)cc1", "no (0)"),
    ("O=C(CC(=O)c1cccc([N+](=O)[O-])c1)C(=O)Nc1nc([N+](=O)[O-])cs1", "no (0)"),
    ("O=NN(CCCl)C(=O)N[C@H]1CC[C@H](CC(=O)O)CC1", "no (0)"),
    ("CO[C@H](c1ccccc1)[C@H](C)N(C)c1ccc2ccccc2c1C1=NC(C)(C)CO1", "no (0)"),
    ("CCn1nc(C)c2c1C(=O)NC(C)C(=O)N2 (stereo unspecified)", "no (0)"),
    ("CCOc1ccc(/N=N/C2C(=O)N(C(=O)CC(=O)Nc3ccccc3OC)N=C2C)cc1 (stereo unspecified)", "no (0)"),
    ("O=C1CC(NCCCNC2CC(=O)c3c(Br)sc(Br)c32)c2c(Br)sc(Br)c21 (stereo unspecified)", "no (0)"),
    ("O=C1C(Br)=Cc2c(Cl)sc(Cl)c21", "no (0)"),
    ("CCOC(=O)c1cnc2cc3cccccc3n2c1=O", "no (0)"),
    ("Nc1nc2c(c(-c3ccc(F)cc3)n1)COC/C2=C\\c1ccc(F)cc1", "no (0)"),
    ("O=C1CCCC2COc3ccc(O)c1c32 (stereo unspecified)", "no (0)"),
    ("COc1ccccc1/C=C/C(=O)c1sc(-c2cccnc2)nc1C", "no (0)"),
    ("N#Cc1c(O)nc2[nH]nc(/N=N\\c3c(O)ccc4ccccc34)c2c1-c1ccc(Cl)cc1", "yes (1)"),
    ("Cc1ccc(C2CC(=O)CC(c3ccc(C)cc3)C23C(=O)NC(=O)NC3=O)cc1 (stereo unspecified)", "no (0)"),
    ("CCN(CC)C(=S)SS(=O)(=O)c1ccccc1[N+](=O)[O-]", "no (0)"),
    ("CN(C)Cc1cc(C(=O)/C=C/c2ccc(Br)cc2)cc(CN(C)C)c1O", "no (0)"),
    ("O=C(CC1(O)C(=O)Nc2c(Cl)cc(Cl)cc21)c1cccc([N+](=O)[O-])c1 (stereo unspecified)", "no (0)"),
    ("C=C(C)[C@H]1C[C@@H]2O[C@@](O)(/C(C)=C\\C(=O)/C=C(/C)C[C@H]3OC(=O)[C@@]24O[C@H]34)[C@@H]1O", "no (0)"),
    ("NC(=O)NC(=O)c1cccc(CNc2ccc(C(=O)N[C@@H](CCC(=O)O)C(=O)O)cc2)n1", "no (0)"),
    ("C[N+](C)(C)CC(CC(=O)[O-])C1CC1 (stereo unspecified)", "no (0)"),
]

###

Test system: HT-29
Experiment: NCI tumour cell line growth inhibition, 48 h
The source made the active and inactive calls. Rule as the data show it: active = GI50 up to about 1.1 µM and inactive = higher.
Possible outcomes: active, inactive

# compound, label
data = [
    ("COc1cc(OC)c(C2(c3c(OC(C)C)c(=O)c3=O)SCCCS2)cc1OC", "inactive"),
    ("COC(C/C(=C/CO[Si](C(C)C)(C(C)C)C(C)C)C(=O)Nc1ccccc1I)OC", "inactive"),
    ("CCC(CCCN)Nc1cc(OC)cc2cccnc12 (configuration not stated)", "inactive"),
    ("Nc1nc(N)c2cc(CNc3ccc(C(=O)NC(CC(=O)O)C(=O)O)c(Cl)c3)ccc2n1 (configuration not stated)", "active"),
    ("COc1cc2c3c(cc(Cl)nc3c1OC)C(O)(CC(=O)c1ccccc1)C(=O)N2 (configuration not stated)", "inactive"),
    ("O=C(NC(=S)Nc1ccc(Br)cc1)c1ccc2c(c1)Sc1ccccc1S2", "inactive"),
    ("O=C(O)CCSC(=O)Nc1ccccc1F", "inactive"),
    ("O=C1/C(=C/c2ccccc2)CNC/C1=C\\c1ccccc1", "active"),
    ("Cc1c(Cl)c2ccccc2n1S(=O)(=O)c1ccccc1", "inactive"),
    ("COc1cccc(C23CCCC(C2)NCC3Br)c1OC (configuration not stated)", "inactive"),
    ("CC(C(=O)c1ccc(Cl)cc1)C1OC(=O)C(Cl)=C1Cl (configuration not stated)", "inactive"),
    ("O=P1(N(CCCl)CCCl)Oc2ccc(Cl)cc2Sc2c(ccc(Cl)c2Cl)O1 (configuration not stated)", "inactive"),
    ("Cc1cc(Cl)ccc1NC(=O)/C(=N\\NC(C)(C)C)C(C#N)c1nc(-c2ccc([N+](=O)[O-])cc2)cs1 (configuration not stated)", "inactive"),
    ("COc1cc(C2C3=C(NC(=O)C2C#N)c2ccc4ccccc4c2OCC3)cc(OC)c1OC (configuration not stated)", "inactive"),
    ("CC(C)(C)[Si](C)(C)OCC1OC(n2cc(I)c(N)nc2=O)C(O[Si](C)(C)C(C)(C)C)C1O[Si](C)(C)C(C)(C)C (configuration not stated)", "inactive"),
    ("COc1ccc([N+]2=NC(c3ccc([N+](=O)[O-])cc3)=NN(c3ccccc3)C2)cc1.[O-][Cl+3]([O-])([O-])[O-]", "inactive"),
    ("C/C=C/C=C\\C1OC(O)([C@H](CC)C(=O)NC/C=C/C=C(\\C)[C@H](OC)C(C)C2OC(\\C=C/C=C/C=C(\\C)C(=O)c3c(O)ccn(C)c3=O)[C@H](O)[C@@H]2O)C(O)C(O)C1(C)C (some centres not stated)", "inactive"),
    ("O=C(Cc1nc2c3c(ccc2nc1O)C(=O)c1ccccc1C3=O)C(=O)Nc1ccccc1[N+](=O)[O-]", "inactive"),
    ("NC(=S)N/N=C(/C(=O)Nc1nc2ccc([N+](=O)[O-])cc2s1)C1C(=O)NC(=S)NC1=O", "inactive"),
    ("COC(=O)CC(NC(=O)OCc1ccccc1)C(C(=O)OCc1ccccc1)C1(C)OCCO1 (configuration not stated)", "inactive"),
    ("O=C(O)c1c[nH]c2c(Sc3ccccc3)nccc2c1=O", "inactive"),
    ("O=C1CC(c2cccc(Cl)c2)Nc2ccc(N3CCCC3)cc21 (configuration not stated)", "active"),
]
